Data credit: paper PMC7896091

# Test system: LoVo/DX cells
# test_name: Antiproliferative activity, SRB assay, doxorubicin resistant subline
# Type: cell-based, human
# condition_parameters: 72 h exposure, SRB, mean ± SD; n.a = no activity in concentration of 5, 25, 125, 625 μM
outcome_measure: pIC50
Field pIC50 (float): negative decimal logarithm of the concentration in molar.

IN: Dear colleague, please send me the reported pIC50 for N.N.[Cl][Pt][Cl] [Cisplatin, reference compound] when you can.
OUT: 5.46

* * *

# System: Myzus persicae
# test_name: Aphid settling (choice test) on treated vs control leaves of Brassica rapa subsp. pekinensis
# Format: in vivo
# condition_parameters: 1 h after access; 0.1% solution in 70% ethanol; mean (± SD), n = 8, 20 aphids/replicate
outcome_measure: Mean number of aphids settled on treated (test) leaf

Field: example entries. Status: answers known.
compound: C=CC(C)(CCCC(C)CCCC(C)CCCC(C)C)CC(=O)OCC (stereo not drawn)
obs_value: 10.8 (± 1.7)
--
compound: C=CC(C)(CCCC(C)CCCC(C)CCCC(C)C)CC(=O)O (stereo not drawn)
obs_value: 8.5 (± 2.1)
--
compound: CC(C)CCCC(C)CCCC(C)CCC[C@]1(C)CC(=O)O[C@@H]1CCl (stereo in doubt)
obs_value: 5.8 (± 1.3)

IN: Would you please give the reported Mean number of aphids settled on treated (test) leaf of CC(C)CCCC(C)CCCC(C)CCC[C@]1(C)CC(=O)O[C@H]1CBr (stereo in doubt) with Myzus persicae?
OUT: 3.4 (± 1.0)

IN: Would you please give the reported Mean number of aphids settled on treated (test) leaf of CC(C)CCCC(C)CCCC(C)CCC[C@]1(C)CC(=O)O[C@@H]1CBr (stereo in doubt) with Myzus persicae?
OUT: 2.9 (± 0.7)

IN: Would you please give the reported Mean number of aphids settled on treated (test) leaf of CC(C)CCCC(C)CCCC(C)CCC[C@]1(C)CC(=O)O[C@H]1CCl (stereo in doubt) with Myzus persicae?
OUT: 4.1 (± 1.0)
